system: MRSA SA11; type: cell-based, Staphylococcus aureus
As shown below, each of these molecules has a reported Minimum inhibitory concentration (MIC) MRSA SA11 value.
Include the unit after the number when you answer.

{"molecule": "CC[C@@H](C)[C@@H](NC(=O)[C@@H](CCC(N)=O)NC(=O)[C@H](CO)NC(=O)[C@@H](NC(=O)[C@@H](Cc1ccccc1)NC)[C@@H](C)CC)C(=O)N[C@H](C(=O)N[C@@H](CO)C(=O)N[C@H]1C(=O)N[C@@H](C)C(=O)N[C@@H]([C@@H](C)CC)C(=O)N[C@@H]([C@@H](C)CC)C(=O)N[C@H]1C)[C@@H](C)CC [T84]", "dataValue": "0.5 µg/mL"}
{"molecule": "CC[C@@H](C)[C@@H](NC(=O)[C@@H](CCC(N)=O)NC(=O)[C@H](CCCNC(=N)N)NC(=O)[C@@H](NC(=O)[C@@H](Cc1ccccc1)NC)[C@@H](C)CC)C(=O)N[C@H](C(=O)N[C@@H](CO)C(=O)N[C@H]1C(=O)N[C@@H](C)C(=O)N[C@@H](C2CCCCC2)C(=O)N[C@@H]([C@@H](C)CC)C(=O)O[C@H]1C)[C@@H](C)CC [T87]", "dataValue": "0.5 µg/mL"}

In the following, a different molecule is considered.
For the molecule CC[C@@H](C)[C@@H](NC(=O)[C@@H](CCC(N)=O)NC(=O)[C@@H](NC(=O)[C@@H](NC(=O)[C@@H](Cc1ccccc1)NC)[C@@H](C)CC)[C@@H](C)CC)C(=O)N[C@H](C(=O)N[C@@H](CO)C(=O)N[C@H]1C(=O)N[C@@H](C)C(=O)N[C@@H](C2CCCCC2)C(=O)N[C@@H]([C@@H](C)CC)C(=O)O[C@H]1C)[C@@H](C)CC [T88] , the measured Minimum inhibitory concentration (MIC) MRSA SA11 on MRSA SA11 was 4 µg/mL

###

tested on: MRSA(SA11I4); format: cell-based, Staphylococcus aureus
Overview of reported Minimum inhibitory concentration (MIC) MRSA(SA11I4) across a group of compounds:
Enter your answer as a number in µg/mL; do not include the unit.

{"inputSmiles": "CCC[C@@H]1NC(=O)[C@H](C)NC(=O)[C@H](NC(=O)[C@H](CO)NC(=O)[C@@H](NC(=O)[C@H](NC(=O)[C@@H](CCC(N)=O)NC(=O)[C@H](CO)NC(=O)[C@@H](NC(=O)[C@@H](Cc2ccccc2)NC)[C@@H](C)CC)[C@@H](C)CC)[C@@H](C)CC)[C@H](C)OC(=O)[C@H]([C@@H](C)CC)NC1=O", "measuredTarget": "MRSA(SA11I4)", "dataValue": 1}

// field: Minimum inhibitory concentration (MIC) MRSA(SA11I4); key: CCC[C@@H]1NC(=O)[C@H](C)NC(=O)[C@H](NC(=O)[C@H](CO)NC(=O)[C@@H](NC(=O)[C@H](NC(=O)[C@@H](CCC(N)=O)NC(=O)[C@H](CO)NC(=O)[C@@H](NC(=O)[C@@H](Cc2ccccc2)NC)[C@@H](C)CC)[C@H](C)CC)[C@@H](C)CC)[C@H](C)NC(=O)[C@H]([C@@H](C)CC)NC1=O ; value = 1

The reported value for CC[C@H](C)[C@H](NC(=O)[C@@H](Cc1ccccc1)NC)C(=O)N[C@@H](CO)C(=O)N[C@H](CCC(N)=O)C(=O)N[C@@H](C(=O)N[C@H](C(=O)N[C@@H](CO)C(=O)N[C@H]1C(=O)N[C@@H](C)C(=O)N[C@@H](Cc2ccc(F)cc2)C(=O)N[C@@H]([C@@H](C)CC)C(=O)O[C@H]1C)[C@@H](C)CC)[C@@H](C)CC in terms of Minimum inhibitory concentration (MIC) MRSA(SA11I4) is 1
